system: Trypanosoma cruzi; test: Trypanosoma cruzi phosphomannomutase and mannose-1-phosphate guanylyltransferase assay; type: functional; design: scale not given: direction of the effect not stated beside the values; conditions: 10 µM
readout: Percent Effect

Worked cases, Percent Effect given:
>  <compound>
c1csc(-c2nc(CNC3CCc4ncnn4C3)cs2)c1 (stereo not given)

>  <Percent Effect>
0.469%

$$$$
>  <compound>
CCc1ncnc2c1CCN(Cc1ccccn1)CC2

>  <Percent Effect>
-5.11%

$$$$
>  <compound>
O=C(Cc1ccc2c(c1)OCCO2)NC1CCN(CC(F)F)CC1

>  <Percent Effect>
-3%

$$$$

I'm hoping you can list Percent Effect for every compound here, please.
1. CC(NC(=O)NCCCn1ccnc1)c1ccc2c(c1)OCCCO2 (stereo not given)
2. CN1CCc2onc(CNc3ncccn3)c2C1
3. Cc1nn(C)c(Cl)c1CNCc1cccnc1N1CCN(C)CC1

["-8.08%", "-7.53%", "2.24%"]

I'm hoping you can list Percent Effect for every compound here, please.
1. CS(=O)(=O)NCc1nnc2n1CCN(Cc1cccs1)C2
2. CCOc1ccc(Cl)c(C(=O)N(C)C)n1
3. CC(C)(C)c1cn2nc(N3CCC[C@@H]3CO)sc2n1
4. CS(=O)(=O)CCC(=O)N1CCC2(CCCN(C3CCOCC3)C2=O)C1 (stereo not given)
5. Cc1nnsc1C(=O)N1CCC2(CC1)c1nc[nH]c1CCN2CC(C)C
6. Cc1ccn(CCC(=O)N2CCOC(c3nc(-c4cccs4)no3)C2)n1 (stereo not given)
7. CCc1nc(CC(=O)NCC(Cc2ccc(F)cc2)C(N)=O)cs1 (stereo not given)
8. CN(C)[C@@H]1CN(Cc2ccco2)C[C@@H]2CCCO[C@@H]21

1. 0.684%
2. -3.66%
3. -0.282%
4. 1.19%
5. -1.46%
6. -5.52%
7. 7.89%
8. -5.16%

I'm hoping you can list Percent Effect for every compound here, please.
1. O=C(NCCCO)Nc1cccc(Cl)c1F
2. COc1ccc(CC(=O)N2CCCC(n3cc(C)cn3)C2)cc1F (stereo not given)

1: 4.96%; 2: 0.201%
